Data provenance is paper PMC4789278.

Test Target: human MAO-A (Homo sapiens, UniProt P21397)
Construct: purchased Sigma
Sequence (P21397 whole entry): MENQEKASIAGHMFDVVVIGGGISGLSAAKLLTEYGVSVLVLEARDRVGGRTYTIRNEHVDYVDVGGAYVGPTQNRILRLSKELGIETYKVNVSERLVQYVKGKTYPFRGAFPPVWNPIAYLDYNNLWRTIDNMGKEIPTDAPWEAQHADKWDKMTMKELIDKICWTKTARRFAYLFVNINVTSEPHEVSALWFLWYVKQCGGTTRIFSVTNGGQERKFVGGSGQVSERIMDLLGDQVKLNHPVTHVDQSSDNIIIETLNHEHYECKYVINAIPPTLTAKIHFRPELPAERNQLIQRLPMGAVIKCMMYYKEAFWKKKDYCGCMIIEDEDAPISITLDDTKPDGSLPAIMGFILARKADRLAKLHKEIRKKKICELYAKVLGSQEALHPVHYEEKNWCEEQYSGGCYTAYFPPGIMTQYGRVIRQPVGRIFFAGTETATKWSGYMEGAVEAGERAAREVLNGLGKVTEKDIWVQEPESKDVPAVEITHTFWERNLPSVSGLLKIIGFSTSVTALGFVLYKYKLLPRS
Measurement Protocol: MAO-A inhibition (MAO-Glo)
Format: biochemical
Protocol Conditions: read-out: MAO-A IC50
Reported Metric: IC50 (µM)

Please review the entries below; each comes with its answer.
1) CN1CCN(C(=O)CNC2CC2c2ccc(OCc3ccccc3)cc2)CC1 (stereo not shown) [Compound 1] | 17.5
2) CN1CCN(C(=O)CNC2CC2c2ccc(-c3ccc(F)nc3)cc2)CC1 (stereo not shown) [Compound 2] | 120

(1) NC1CC1c1ccc(-c2ccc(F)nc2)cc1 (stereo not shown) [Compound 4]
(2) CN1CCN(C(=O)CNC2CC2c2ccc(Br)cc2)CC1 (stereo not shown) [Compound 3]
For this pair, 1 and 2 , which shows a numerically higher IC50? Indicate your choice by writing its label. 2
(2: 7.3 µM, 1: 0.42 µM)

----------
# human MAO-B (Homo sapiens, UniProt P27338): IC50 values follow
# Sequence (P27338 whole entry): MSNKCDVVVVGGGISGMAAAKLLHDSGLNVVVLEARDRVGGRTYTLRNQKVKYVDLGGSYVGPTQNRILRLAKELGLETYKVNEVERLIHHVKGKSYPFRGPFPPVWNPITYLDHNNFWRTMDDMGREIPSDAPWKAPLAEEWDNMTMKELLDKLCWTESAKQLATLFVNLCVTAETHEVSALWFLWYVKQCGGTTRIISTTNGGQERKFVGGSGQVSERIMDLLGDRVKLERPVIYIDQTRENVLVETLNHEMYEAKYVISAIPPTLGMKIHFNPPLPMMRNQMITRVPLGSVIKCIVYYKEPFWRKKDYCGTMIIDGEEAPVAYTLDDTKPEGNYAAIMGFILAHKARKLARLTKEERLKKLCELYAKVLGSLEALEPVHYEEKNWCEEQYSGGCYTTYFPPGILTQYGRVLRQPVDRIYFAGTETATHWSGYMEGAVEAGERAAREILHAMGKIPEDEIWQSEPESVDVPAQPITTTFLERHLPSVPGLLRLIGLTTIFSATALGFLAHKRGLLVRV
Reported Metric: IC50 (µM)

(I) CN1CCN(C(=O)CNC2CC2c2ccc(Br)cc2)CC1 (stereo not drawn)
(II) CN1CCN(C(=O)CNC2CC2c2ccc(-c3ccc(F)nc3)cc2)CC1 (stereo not drawn)
Lab log: flag the item ( I or II ) with the smaller IC50 figure. Reply briefly: the label of your chosen item. I

----------
Test Target: recombinant human LSD1 (Homo sapiens)
Construct: Human LSD1 catalytic domain (172-833) was cloned
Measurement Protocol: LSD1 enzyme inhibition assay (HRP/Amplex red)
Reported Metric: IC50 (nM)

(a) NC1CC1c1ccc(-c2ccc(F)nc2)cc1 (stereo not drawn) [Compound 4]
(b) CN1CCN(C(=O)CNC2CC2c2ccc(Br)cc2)CC1 (stereo not drawn) [Compound 3]
(c) CN1CCN(C(=O)CNC2CC2c2ccc(-c3ccc(F)nc3)cc2)CC1 (stereo not drawn) [Compound 2]
Rank ascending by IC50. Provide your answer as the labels ordered per the instruction. b, c, a

----------
Test system: prostate cancer LNCaP cells
Measurement Protocol: Antiproliferation assay (MTT), LNCaP
Assay type: cell-based
Protocol Conditions: Homo sapiens, 360 h, 15-day treatment, read-out: LNCaP EC50 (antiproliferative)
pEC50: −log10 of the molar value.
Reported Metric: pEC50

1. CN1CCN(C(=O)CNC2CC2c2ccc(OCc3ccccc3)cc2)CC1 (stereo not shown) | 5.43

(1) CN1CCN(C(=O)CNC2CC2c2ccc(Br)cc2)CC1 (stereo not shown)
(2) CN1CCN(C(=O)CNC2CC2c2ccc(-c3ccc(F)nc3)cc2)CC1 (stereo not shown)
Min pEC50? 1 | 2 # answer = label of selected item 1
(1: 4.52, 2: 5.00)
